- Tested on: U-251
- ASSAY DETAILS: NCI tumour cell line growth inhibition, 48 h
Activity calls are given as the source filed them. No stated cut-off is given here; in the data, active = GI50 up to about 1.1 µM and inactive = higher.
Outcome codes: yes (1) for active, no (0) for inactive

compound="O=C(c1nc2ccccc2nc1O)C(O)c1ccco1 (stereo not drawn)" assigned_category="no (0)"
compound=CCOP(=O)(C/C(=N/NC(C)(C)C)C(=O)Nc1nc2ccc(C)cc2s1)OCC assigned_category="no (0)"
compound="COc1cc(/C=C2\\CCC(C)c3c2nc(N)c(C#N)c3-c2cc(OC)c(OC)c(OC)c2)cc(OC)c1OC (stereo not drawn)" assigned_category="no (0)"
compound="CCSC(=O)C1(C)OC2CCCCC2C1=O (stereo not drawn)" assigned_category="no (0)"
compound=Cc1csc2nc(-c3ccc([N+](=O)[O-])cc3)c(/C=N/N=C(N)N)n12 assigned_category="no (0)"
compound=COc1ccc(/C=C/c2cc(OC)c(OC)c(OC)c2)cc1O[Si](C)(C)C(C)(C)C assigned_category="no (0)"
compound="CCN1C(=O)C(N=[N+]=[N-])(c2ccccc2)C(=O)c2ccccc21 (stereo not drawn)" assigned_category="no (0)"
compound=COC(=O)c1c(-c2ccccc2)c2sc3ccccc3n2c1N assigned_category="no (0)"
compound=O=c1cc(N2CCCC2)[nH]c(=O)n1-c1cccc(C(F)(F)F)c1 assigned_category="no (0)"
compound=COc1ccc(-c2[nH]c3c4c(nc5c(c24)C(=O)CC(C)(C)C5)CC(C)(C)C3)cc1 assigned_category="no (0)"
compound="CC(=O)C1C(=O)C(=O)N(c2ccccc2C(C)C)C1=O (stereo not drawn)" assigned_category="no (0)"
compound=CCN(CC)c1ccc(/C=C/C=C2C(=O)NC(=S)NC2=O)cc1 assigned_category="no (0)"
compound="COC(C)(C)[C@@H](O)[C@H](O)C[C@H](C)C1=C2CC[C@@H]3[C@@]4(C)CC[C@@H](OC(C)=O)C(C)(C)[C@@H]4C[C@@H](OC4OC(COC(C)=O)C(O)C(O)C4O)[C@@]3(C)[C@]2(C)CC1 (stereo partly drawn)" assigned_category="no (0)"
compound=O=C1C(c2c(O)[nH]c3ccc(F)cc23)=Nc2ccccc21 assigned_category="no (0)"
compound=C/C(=N\NC(=S)N1CCN(c2ccccn2)CC1)c1cccc(C)n1 assigned_category="yes (1)"
compound="CC(=O)NC1C(OCc2ccccc2)OC(CO)C(O)C1OCC(=O)N1CCCC1C(=O)N[C@@H](CCC(=O)NCCCCNc1c2ccccc2nc2cccc([N+](=O)[O-])c12)C(N)=O (stereo partly drawn)" assigned_category="no (0)"
compound="O=C1c2cccnc2C(=O)C2C3C=CC(C3)C12 (stereo not drawn)" assigned_category="no (0)"
compound=CC(C)Oc1c(C2(c3ccccc3O)SCCCS2)c(=O)c1=O assigned_category="no (0)"
compound=Cn1c(=O)c2c(nc3n(Cc4ccccc4)c(=O)c(Br)cn23)n(C)c1=O assigned_category="no (0)"
compound=CC(=O)n1nc(-c2ccccc2)n(/N=C/c2ccc([N+](=O)[O-])o2)c1=O assigned_category="no (0)"
compound=Cn1cc(C(=O)c2ccccc2)cc(C(=O)c2ccccc2)c1=O assigned_category="no (0)"
compound=Brc1ccc(/C(N=N/C(=N\Sc2ccccc2)c2ccc(Br)cc2)=N/Sc2ccccc2)cc1 assigned_category="no (0)"
compound="CC(NC(=O)C(N)CC(=O)O)NC(=O)N(C)C(C)(C)C (stereo not drawn)" assigned_category="no (0)"
compound="c1ccc2c(c1)cc1n2CC2CN=NC12 (stereo not drawn)" assigned_category="no (0)"
compound="CCOP(=O)(OCC)C1=NC=CC=CC1n1c(-c2ccccc2)nn(CC)c1=O (stereo not drawn)" assigned_category="no (0)"
compound=CCO/C=N\C1=C(C#N)SC2=N/C(=C\c3ccco3)C(=O)N21 assigned_category="no (0)"
compound="COc1ccc2nc(NC(=O)C(=O)C(C#N)c3ccc(Cl)c(Cl)c3)sc2c1 (stereo not drawn)" assigned_category="no (0)"
compound=Cc1nc(-n2nc(-c3ccccc3)cc2-c2ccccc2)sc1C(=O)/C=C/c1ccc(/C=C/C(=O)c2sc(-n3nc(-c4ccccc4)cc3-c3ccccc3)nc2C)cc1 assigned_category="no (0)"
